Please provide measured pIC50 for the entries that follow.
- Tested system: LPAR1 receptor (Homo sapiens, UniProt Q92633)
- Construct: expressed in transfected cells
- Sequence (Q92633 whole entry): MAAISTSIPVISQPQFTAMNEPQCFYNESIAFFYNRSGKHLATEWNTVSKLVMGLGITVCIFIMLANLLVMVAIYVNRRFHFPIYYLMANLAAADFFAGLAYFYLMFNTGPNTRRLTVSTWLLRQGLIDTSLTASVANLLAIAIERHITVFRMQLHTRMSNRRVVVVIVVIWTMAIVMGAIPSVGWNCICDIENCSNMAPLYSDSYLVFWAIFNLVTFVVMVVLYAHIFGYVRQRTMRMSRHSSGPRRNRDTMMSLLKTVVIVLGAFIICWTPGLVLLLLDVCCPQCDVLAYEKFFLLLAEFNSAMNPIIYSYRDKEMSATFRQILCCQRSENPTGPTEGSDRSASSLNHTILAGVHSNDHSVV
- Test name: LPAR1 in vitro biological activity evaluation 2: HTRF cAMP kit (LANCE Ultra cAMP Kit) assay in CHO stable transfected cell line expressing the LPAR1 receptor
- Type: cell-based
- Measurement parameters: Table 2, read-out: LPAR1 inhibitory activity IC50
Please express pIC50 as -log10 of the molar concentration.

Q) What pIC50 value was documented for this compound, CCC[C@@H](C)OC(=O)Nc1c(-c2ccc(C#C[C@@H]3CCC[C@H]3C(=O)O)c(C)n2)nnn1C ?
A) 7.04

Q) Can you look up the measured pIC50 of Cc1nc(-c2nnn(C)c2NC(=O)O[C@H](C)c2ccccc2Cl)ccc1C#C[C@@H]1C[C@H]1C(=O)O for me?
A) 6.93

Q) For the compound shown here, CCCN(C)C(=O)OCc1c(-c2ccc(O[C@H]3CCC[C@H](C(=O)O)C3)c(C)n2)nnn1C [Control compound 1, reference compound] , give the reported pIC50.
A) 6.39

Q) Any idea what pIC50 was measured for CCC(F)(F)[C@@H](C)OC(=O)Nc1c(-c2ccc(C#CC3(CC(=O)O)CC3)c(C)n2)noc1C ?
A) 7.32

Q) Report pIC50 for CCC(F)(F)[C@@H](C)OC(=O)Nc1c(-c2ccc(C#CC3(CC(=O)O)CC(OC)C3)c(Cl)n2)nnn1C (some centres unmarked) please.
A) 7.63

Q) // query pIC50 value for entry Cc1nc(-c2nnn(C)c2NC(=O)O[C@H](C)CC(C)(F)F)ccc1C#CC1(CC(=O)O)CC2(CC2)C1
A) 8.17

Q) What value of pIC50 has been reported for the following compound? Cc1nc(-c2noc(C)c2NC(=O)O[C@H](C)CC(C)(F)F)ccc1C#CC1(CC(=O)O)CC1
A) 6.97

Q) Find the recorded pIC50 belonging to CCC(F)(F)[C@@H](C)OC(=O)Nc1c(-c2ccc(C#Cc3cc(C(F)(F)F)ncc3C(=O)O)c(C)n2)nnn1C and report it.
A) 7.58

Q) Which value of pIC50 has been reported for CCC[C@@H](C)OC(=O)Nc1c(-c2ccc(C#CC3(CC(=O)O)CC(OC)C3)c(C)n2)nnn1C (single isomer, unassigned) [278-B] in the records?
A) 7.25

Q) Which measured pIC50 value corresponds to CCC[C@@H](C)OC(=O)Nc1c(-c2ccc(C#CC3(CS(=O)(=O)O)CC4(CC4)C3)c(C)n2)nnn1C ?
A) 8.40

Q) Report pIC50 for CCC(F)(F)[C@@H](C)OC(=O)Nc1c(C)noc1-c1ccc(C#CC2(CC(=O)O)CC2)c(CF)n1 please.
A) 6.95

Q) Entry CCC[C@@H](C)OC(=O)Nc1c(-c2ccc(C#CC3(CC(=O)O)CC(OCC)C3)c(C)n2)nnn1C (some centres unmarked) : reported pIC50 = ?
A) 7.23

Q) Sample CCc1nc(-c2nnn(C)c2NC(=O)O[C@H](C)C(F)(F)CC)ccc1C#CC1(CC(=O)O)CC1 — what was its pIC50?
A) 6.79

Q) pIC50 for CCC(F)(F)[C@@H](C)OC(=O)Nc1c(C)noc1-c1ccc(C#C[C@@H]2CC(F)(F)C[C@H]2C(=O)O)c(C)n1 ?
A) 7.45

---

- Test name: Pharmacokinetic study in rats (oral gavage and tail vein injection, plasma LC-MS/MS)
- Format: in vivo
- Measurement parameters: male, rat, SD rats, Po, 1 mg/kg
Observed property: AUC(0-t)

Q) Value lookup for AUC(0-t); key = Cc1nc(-c2nnn(C)c2COC(=O)N(C)CCC(C)(F)F)ccc1C#C[C@@H]1CCC[C@H]1C(=O)O (racemic) [compound 282]
A) 1200 to 3000 ng·h/mL

Q) Recorded AUC(0-t) for Cc1nc(-c2nnn(C)c2CNc2nccc(C3CC(F)(F)C3)n2)ccc1C#CC1(CC(=O)O)CC1 [compound 254] , please?
A) 3000 to 5000 ng·h/mL

Q) Quick one: AUC(0-t) of CCC(F)(F)[C@@H](C)OC(=O)Nc1c(-c2ccc(C#C[C@@H]3CC[C@H]3C(=O)O)c(C)n2)nnn1C (mixture of isomers) [212-B] ?
A) 5000 to 10000 ng·h/mL

Q) Consider the compound Cc1nc(-c2nnn(C)c2NC(=O)O[C@H](C)CC(C)(C)F)ccc1C#C[C@@H]1CCC[C@H]1C(=O)O (mixture of isomers) [244-B] and give its measured AUC(0-t).
A) 5000 to 10000 ng·h/mL

Q) Would you mind telling me what AUC(0-t) value was observed for Cc1nc(-c2nnn(C)c2NC(=O)OC(C)C23CC(F)(C2)C3)ccc1C#CC1(CC(=O)O)CC1 (stereo not shown) [compound 285] ?
A) 3000 to 5000 ng·h/mL

Q) # AUC(0-t) lookup, item CC(OC(=O)Nc1c(-c2ccc(C#CC3(CC(=O)O)CC3)c(F)n2)nnn1C)C12CC(C1)C2 (stereo not shown) [237-A]
A) 5000 to 10000 ng·h/mL

Q) I would be grateful if you could share the reported AUC(0-t) for CCCN(C)C(=O)OCc1c(-c2ccc(O[C@H]3CCC[C@H](C(=O)O)C3)c(C)n2)nnn1C [Control compound 1, reference compound] .
A) 626 ng·h/mL

---

- Test name: Pharmacokinetic study in rats (oral gavage and tail vein injection, plasma LC-MS/MS)
- Format: in vivo
- Measurement parameters: male, SD, rat, po, 1 mg/kg
Observed property: half-life (min)
Value expressed in min; do not type the unit.

Q) Item under review: Cc1nc(-c2nnn(C)c2CNc2nccc(C3CC(F)(F)C3)n2)ccc1C#CC1(CC(=O)O)CC1 . Reported half-life?
A) 308

Q) Any idea what half-life was measured for C[C@H](CC(C)(F)F)OC(=O)Nc1c(-c2ccc(C#CC3(CC(=O)O)CC3)c(Cl)n2)nnn1C ?
A) 365

Q) Tell me the measured half-life of CCCN(C)C(=O)OCc1c(-c2ccc(O[C@H]3CCC[C@H](C(=O)O)C3)c(C)n2)nnn1C [Control compound 1, reference compound] , please.
A) 142

Q) For the compound Cc1nc(-c2nnn(C)c2NC(=O)OC(C)CCC(F)F)ccc1C#CC1(CC(=O)O)CC1 (centres unmarked) , what half-life is on record?
A) 414

Q) half-life for Cc1nc(-c2nnn(C)c2NC(=O)O[C@H](C)CC(C)(F)F)ccc1C#CC1(CC(=O)O)CCC1 ?
A) 344

Q) Name the reported half-life value associated with the compound CCCN(C)C(=O)OCc1c(-c2ccc(C#C[C@@H]3CCC[C@H]3C(=O)O)c(C)n2)nnn1C
A) 332

Q) Recorded half-life of CCc1nc(-c2nnn(C)c2NC(=O)O[C@H](C)C(F)(F)CC)ccc1C#CC1(CC(=O)O)CC(OC)C1 (some centres unmarked) , please.
A) 325

Q) So what's the measured half-life for this one? Cc1nc(-c2nnn(C)c2NC(=O)O[C@H](C)c2ccccc2)ccc1C#C[C@@H]1CC[C@H]1C(=O)O
A) 245

Q) Name the reported half-life value associated with the compound Cc1nc(-c2nnn(C)c2NC(=O)O[C@H](C)c2ccccc2)ccc1C#C[C@@H]1C[C@H]1C(=O)O
A) 209

Q) Tell me the measured half-life of CC(OC(=O)Nc1c(-c2ccc(C#CC3(CC(=O)O)CC3)c(F)n2)nnn1C)C12CC(C1)C2 (centres unmarked) , please.
A) 240

Q) Fill in the blank: the reported half-life of Cc1nc(-c2nnn(C)c2COC(=O)N(C)CCC(C)(F)F)ccc1C#C[C@@H]1CCC[C@H]1C(=O)O (racemic) is ____.
A) 275

Q) Consider the compound CCC(F)(F)[C@@H](C)OC(=O)Nc1c(C)noc1-c1ccc(C#CC2(CC(=O)O)CC(OC)C2)c(C(F)(F)F)n1 (some centres unmarked) and give its measured half-life.
A) 145

Q) So what does the record say about half-life for Cc1nc(-c2nnn(C)c2NC(=O)O[C@H](C)CC(C)(C)F)ccc1C#C[C@@H]1CCC[C@H]1C(=O)O (mixture of isomers) ?
A) 244

Q) Look at this compound and give its reported half-life. Cc1nc(-c2nnn(C)c2NC(=O)O[C@H](C)C(F)(F)C(C)C)ccc1C#CC1(CC(=O)O)CC1
A) 510

Q) So what does the record say about half-life for CCC(F)(F)[C@@H](C)OC(=O)Nc1c(-c2ccc(C#C[C@@H]3CC[C@H]3C(=O)O)c(C)n2)nnn1C (mixture of isomers) ?
A) 478

Q) Looking for the measured half-life of CCOC1CC(C#Cc2ccc(-c3nnn(C)c3NC(=O)O[C@H](C)C(F)(F)CC)nc2C)(CC(=O)O)C1 (some centres unmarked) , can you help?
A) 342

Q) Recorded half-life of CCC[C@@H](C)OC(=O)Nc1c(-c2ccc(C#C[C@@H]3C[C@H]3C(=O)O)c(C)n2)nnn1C (mixture of isomers) , please.
A) 226

Q) Data request, read-out half-life, for CCC[C@@H](C)OC(=O)Nc1c(-c2ccc(C#CC3(CC(=O)O)CC(OC)C3)c(C)n2)nnn1C (some centres unmarked)
A) 270

Q) Form field: reported half-life of Cc1nc(-c2nnn(C)c2NC(=O)O[C@H](C)CC(C)(F)F)ccc1C#C[C@@H]1CC[C@H]1C(=O)O (mixture of isomers)
A) 598

Q) Entry CCC(F)(F)[C@@H](C)OC(=O)Nc1c(-c2ccc(C#C[C@@H]3CCC[C@H]3C(=O)O)c(C)n2)nnn1C (mixture of isomers) : reported half-life = ?
A) 254
